logD values, listed per item
- measurement.description: Apparent partition coefficient (P) between octanol and pH 7.4 aqueous buffer at 21° C.
- recorded.conditions: octanol / phosphate buffer
# print the numeric value only

>>> result_number("CC(C)C(=O)Oc1ccc2c3c1O[C@H]1[C@@H](OC(=O)C(C)C)C=C[C@H]4[C@@H](C2)N(C)CC[C@@]341")
2.6
>>> result_number("CCC(=O)Oc1ccc2c3c1O[C@H]1[C@@H](OC(=O)CC)C=C[C@H]4[C@@H](C2)N(C)CC[C@@]341")
1.66

Turning to the following compound.
GET /value?item= CCC(=O)Oc1ccc2c3c1O[C@H]1[C@@H](O)C=C[C@H]4[C@@H](C2)N(C)CC[C@@]341 &field=logD returns 0.66
